# procedure-summary: Coupling of water and octanoic acid by hydrotropes (amount producing a single phase)
# Type: physicochemical
# experimental-setup: water:octanoic acid 90:10 (DI water 4.5 g, octanoic acid 0.5 g)
Each record here notes measured Amount of hydrotrope that produced a single phase.
I only need the number, in grams, no unit after it.

Observe how each entry below is paired with its result.
| molecule | measurement |
| --- | --- |
| CCCCOCCO | 5.43 |
| COC(C)COC(C)CO (stereo not drawn) | 3.7 |

Recorded Amount of hydrotrope that produced a single phase (molecule COCC(C)O (stereo not drawn) ): 3.44

Recorded Amount of hydrotrope that produced a single phase (molecule CCOC(=O)CCC1(C)OCC(CO)O1 (stereo not drawn) ): 6.84

Recorded Amount of hydrotrope that produced a single phase (molecule CC1COC(C)(CCCO)O1 (stereo not drawn) ): 4.33

Recorded Amount of hydrotrope that produced a single phase (molecule `CCO` ): 2.87

From: patent US9458414B2
